test.description: qHTS assay to identify small molecule antagonists of the sonic hedgehog signaling (Shh) pathway - cell viability counter screen (AID 1259367); also: nearly all actives have a fitted effect of over 55% in size
condition: NIH/3T3 Gli1-Luc viability, CellTiter-Fluor, 24 h; series mostly up to 92.4 µM
Results filed as inconclusive are left out. Calls of active or inactive are those of the source. Calls follow the shape of the dose curve; as a rule, active = well fitted cell-killing curve with a large enough effect in the repeat runs; inconclusive = weak or mixed curves, or effect the other way; inactive = no such curve, though single readings can be large or run the other way.
Classes used: Yes = active, No = inactive

INSERT INTO assay_data (molecule, group_label) VALUES
  ('O=C(C(Cl)(Cl)Cl)C(Cl)(Cl)Cl', 'No'),
  ('O=C(O)COc1ccc(Cl)cc1', 'No'),
  ('CCOP(O)OCC', 'No'),
  ('Clc1cc(C(Cl)(Cl)Cl)cnc1Cl', 'No'),
  ('O=NN1CCNCC1', 'No'),
  ('O=C1c2ccccc2C(=O)C1C(=O)C(c1ccccc1)c1ccccc1', 'No'),
  ('O=C(N[C@H](c1ccccc1)[C@@H]1CN2CCC1CC2)c1c(Cl)ccc(C(F)(F)F)c1Cl', 'Yes'),
  ('CCCCCCC#N', 'No'),
  ('IC(I)=C(I)I', 'Yes'),
  ('COc1c(C(C)(C)C)cc([N+](=O)[O-])c(C)c1[N+](=O)[O-]', 'No'),
  ('Nc1nc(=S)[nH][nH]1', 'No'),
  ('CC(C)(OO)c1ccccc1', 'No'),
  ('CCC(C)(NC(=O)c1cc(Cl)c(C)c(Cl)c1)C(=O)CCl (stereo not given)', 'Yes'),
  ('CC(=O)CCC(C)=O', 'No'),
  ('O=C(O)c1ccccc1C(=O)Nc1cccc2ccccc12', 'No');

---

test.description: qHTS assay to identify small molecule antagonists of the thyroid receptor (TR) signaling pathway (AID 743065); also: nearly all actives have a fitted effect of over 55% in size
condition: GH3.TRE-Luc, T3-stimulated luciferase inhibition, 23.5 h; series mostly up to 70.3 µM
Inconclusive results are not listed. Calls of active or inactive are those of the source. Calls follow the shape of the dose curve; as a rule, active = well fitted inhibition curve with a large enough effect in the repeat runs; inconclusive = weak or mixed curves; inactive = no such curve, though single readings can be large or run the other way.
Classes used: 1 (yes) (active), 0 (no) (inactive)

INSERT INTO assay_data (compound, group_label) VALUES
  ('O=C1c2ccccc2C(=O)C1C(=O)C(c1ccccc1)c1ccccc1', '0 (no)'),
  ('COc1nn(C(=O)NS(=O)(=O)c2ccccc2OC(F)(F)F)c(=O)n1C', '0 (no)'),
  ('O=C(O)C(F)(F)C(F)(F)C(F)(F)C(F)(F)C(F)(F)C(F)(F)C(F)(F)C(F)(F)C(F)(F)C(F)(F)F', '0 (no)'),
  ('CCCCCC[N+](=O)[O-]', '0 (no)'),
  ('NS(=O)(=O)C(F)(F)C(F)(F)C(F)(F)C(F)(F)C(F)(F)C(F)(F)C(F)(F)C(F)(F)F', '1 (yes)'),
  ('O=C(NC(=O)c1c(F)cccc1F)Nc1cc(Cl)c(Oc2ncc(C(F)(F)F)cc2Cl)c(Cl)c1', '1 (yes)'),
  ('O=C(NCc1cccnc1)Nc1ccc([N+](=O)[O-])cc1', '1 (yes)'),
  ('O=[N+]([O-])c1ccccc1CCl', '0 (no)'),
  ('O=C1C(Cl)C(CCl)CN1c1cccc(C(F)(F)F)c1 (stereo not given)', '0 (no)'),
  ('C=COC(C)=O', '0 (no)'),
  ('C=CC(=O)NCNC(=O)C=C', '0 (no)'),
  ('CCC(Cl)CCl (stereo not given)', '0 (no)'),
  ('COCCOCCO', '1 (yes)'),
  ('CCCCCCC#N', '0 (no)'),
  ('O=NN1CCNCC1', '0 (no)');
